Examples of compounds with documented Percent Effect follow.
System: Wolbachia pipientis
Assay Method Text: Anti-Wolbachia Cell-Based Screen
Type: functional
Set-up: scale not given: in the data most compounds retested in dose-response had high values
Measurement Parameters: 5 µM
The whole screen tested about 48,000 compounds, of which about 13,000 (27%) showed an effect of 50% or more. The list shows a part of the results.
Report the value in % with no unit label.

Below, 5 compounds whose answers are already recorded.
# Compound, Reported Metric, Endpoint Unit, Obs Value
measured = [
    ("CC(NC(=O)N(C)Cc1ccc2c(c1)OCCO2)c1nncn1C (stereo unspecified)", "Percent Effect", "%", -31.29),
    ("O=C(O)c1cc(-c2cn[nH]c2)cc(S(=O)(=O)N2CCSCC2)c1", "Percent Effect", "%", -7.646),
    ("CCCn1ncnc1C(C)NC(=O)C1CCN(C(C)C)CC1 (stereo unspecified)", "Percent Effect", "%", -2.448),
    ("CS(=O)(=O)N1CCC(c2cnc(-c3cn[nH]c3)cn2)CC1", "Percent Effect", "%", 122.9581),
    ("Cn1cc(-c2nc(C3CCN(S(C)(=O)=O)CC3)cc3c2ncn3C)cn1", "Percent Effect", "%", 6.413),
]

Prompt line: Report Percent Effect for `CC(C)(C)NC(=O)CNC(=O)CCc1ccccc1Br` please.
Response line: 12.72

====

System: Wolbachia pipientis
Assay Method Text: Anti-Wolbachia Cell-Based Screen
Type: functional
Design: scale not given: in the data most compounds retested in dose-response had high values
Measurement Parameters: 5 µM
In all, about 48,000 compounds went through this assay and about 13,000 (27%) showed an effect of 50% or more. The list shows a part of the results.
Examples of compounds with documented Percent Effect follow.
Report the value in % with no unit label.

Below, 3 compounds whose answers are already recorded.
# Compound, Target System, Endpoint Unit, Obs Value
rows = [
    ("CCOc1ccc(CN2CCN(C(=O)c3cc(C4CC4)[nH]n3)CC2)cc1", "Wolbachia pipientis", "%", 100.1),
    ("O=C(CC1CCCC1)N1C[C@@H]2CN(Cc3ccoc3)CCO[C@@H]2C1", "Wolbachia pipientis", "%", -9.792),
    ("Cc1cccc(CN2CCN(C(=O)c3ccc(C)[nH]c3=O)CC2)c1", "Wolbachia pipientis", "%", -0.706),
]

Prompt line: Reported Percent Effect for Wolbachia pipientis, given `CC(C)c1cc(C(=O)N2CCCN(Cc3ccccc3)CC2)n[nH]1` ?
Response line: -13.62

Prompt line: Reported Percent Effect for Wolbachia pipientis, given `O=C(C1CC(F)(F)C1)N1C[C@@H]2CN(CC3CC3)CCO[C@@H]2C1.O=C(O)C(F)(F)F` ?
Response line: 110.9

Prompt line: Reported Percent Effect for Wolbachia pipientis, given `O=C(C1CC(F)(F)C1)N1C[C@@H]2CN(CC3CCCC3)CCO[C@@H]2C1.O=C(O)C(F)(F)F` ?
Response line: 97.34

====

Tested on: Wolbachia pipientis
Assay Method Text: Anti-Wolbachia Cell-Based Screen
Assay type: functional
Parameters: scale not given: in the data most compounds retested in dose-response had high values
Measurement Parameters: 5 µM
Screen size: about 48,000 compounds; about 13,000 (27%) showed an effect of 50% or more. The list shows a part of the results.
Reported Metric: Percent Effect (%)
Report the value in % with no unit label.

# Compound, Percent Effect / %
data = [
    ("Cc1ccc(C(=O)N2CCN(CCC(C)(C)C)CC2)c(=O)[nH]1", -8.325),
    ("CC(=O)N(Cc1noc(C2CC2)n1)C1CCN(Cc2cccnc2)C1 (stereo unspecified)", 56.34),
    ("CC(=O)N(Cc1noc(C2CC2)n1)C1CCN(Cc2ccccc2)C1 (stereo unspecified)", 96.7),
    ("O=C(c1ncncc1Cl)N1CCC2(CCCC2)CC1", -11.62),
    ("Cn1nc(C(=O)N(CC(F)(F)F)c2cccc(Cl)c2)ccc1=O", -17.45),
    ("CC(Cn1ccnc1)NC(=O)C1(c2ccc3c(c2)OCCO3)CCCC1 (stereo unspecified)", 6.008),
    ("c1cnc(NCc2n[nH]c3c2CCN(Cc2ccncc2)C3)nc1", -7.099),
    ("COCCCn1nnc(C2(NC(=O)c3ccccc3)CCCC2)n1", -42.57),
    ("Cc1cc(CN(C)C(=O)CNS(=O)(=O)c2cccs2)no1", -1.596),
    ("O=C(O)C(F)(F)F.O=C(O)C(F)(F)F.O=C(O)c1cc2c(nc1-c1cncnc1)CCN(C1CCOC1)CC2 (stereo unspecified)", -20.41),
]

Now for a further compound.
Prompt line: Report Percent Effect for Cc1nc(CCNC2CCN(Cc3ccccc3)C2)sc1C (stereo unspecified) please.
Response line: -12.11
